Origin of the recorded values: patent US10428140B2

- Target entity: T1, human EphA5 (Homo sapiens, UniProt P54756)
- T1 construct: a protein of the extracellular region of each human Eph receptor fused with the SEAP protein and the His tag; made in house; host or cells: Expi293F cells (culture supernatant)
- T1 sequence (P54756 25-573 limits assumed): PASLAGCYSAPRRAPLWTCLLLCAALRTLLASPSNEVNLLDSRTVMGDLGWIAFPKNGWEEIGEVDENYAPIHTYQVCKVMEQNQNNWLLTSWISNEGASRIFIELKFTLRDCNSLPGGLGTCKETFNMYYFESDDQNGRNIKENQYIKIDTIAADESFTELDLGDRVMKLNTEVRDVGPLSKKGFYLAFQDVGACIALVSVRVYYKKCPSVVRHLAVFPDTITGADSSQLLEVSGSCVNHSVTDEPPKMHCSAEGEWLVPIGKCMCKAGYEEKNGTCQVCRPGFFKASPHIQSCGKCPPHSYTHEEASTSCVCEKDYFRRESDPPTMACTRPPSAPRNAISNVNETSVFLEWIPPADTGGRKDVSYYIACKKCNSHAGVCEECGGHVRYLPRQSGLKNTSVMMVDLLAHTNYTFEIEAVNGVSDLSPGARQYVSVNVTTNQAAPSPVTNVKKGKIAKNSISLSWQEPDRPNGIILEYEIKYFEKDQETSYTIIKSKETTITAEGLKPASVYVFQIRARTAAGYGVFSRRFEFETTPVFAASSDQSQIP
- Protocol description: Selectivity ELISA of humanized antibodies for human Eph receptor
- Type: binding
- Measurement setup: coated protein 1 nM
Readout name: hEphA5-SEAP-: absorbance at 450 nm, percentage with respect to hEphA4-SEAP-His as 100%
Write down the value, and be sure its unit follows.

Prompt line: If you can, please state the reported hEphA5-SEAP-: absorbance at 450 nm, percentage with respect to hEphA4-SEAP-His as 100% value of 132 (antibody, V domains shown, synthetic humanized antibody heavy chain variable region sequence; synthetic humanized antibody light chain variable region sequence) VH: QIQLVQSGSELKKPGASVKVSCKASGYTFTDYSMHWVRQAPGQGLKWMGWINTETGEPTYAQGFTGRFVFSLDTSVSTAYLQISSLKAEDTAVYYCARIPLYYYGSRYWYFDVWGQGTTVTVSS VL: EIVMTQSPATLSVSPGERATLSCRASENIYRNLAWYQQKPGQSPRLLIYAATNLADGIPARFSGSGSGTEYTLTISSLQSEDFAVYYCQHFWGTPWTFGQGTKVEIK .
Response line: 4.7%
